Target: T1, Human CD3eg linker (human)
T1 construct: single-chain construct; also called recombinant human CD3
T1 chain: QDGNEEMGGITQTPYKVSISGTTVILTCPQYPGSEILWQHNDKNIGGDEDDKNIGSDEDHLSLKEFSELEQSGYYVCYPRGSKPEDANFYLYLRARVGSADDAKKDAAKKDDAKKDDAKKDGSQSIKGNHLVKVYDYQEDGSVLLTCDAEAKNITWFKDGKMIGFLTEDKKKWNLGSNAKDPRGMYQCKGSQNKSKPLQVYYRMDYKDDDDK
Test: SPR, vs unmutated H183/L072
Measure Name: fold change of affinity (fold)
Kindly provide the numeric value in fold only, without the unit symbol.

Known fold change of affinity results, listed for orientation:
>>> value("dBBDu183H T100bS/dBBDu072L (antibody, name in Kabat numbering, V domains shown) VH: QVQLVESGGGLVQPGRSLRLSCAASGFTFSNAWMHWVRQAPGKGLEWVAQIKDKGNAYAAYYAPSVKGRFTISRDDSKNSIYLQMNSLKTEDTAVYYCHYVHYASASSVLPAFGVDAWGQGTTVTVSS VL: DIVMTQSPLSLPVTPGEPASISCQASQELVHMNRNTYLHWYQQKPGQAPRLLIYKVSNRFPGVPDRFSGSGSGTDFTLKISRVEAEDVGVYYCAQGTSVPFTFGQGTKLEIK")
1.5
>>> value("dBBDu183H S99H/dBBDu072L (antibody, name in Kabat numbering, V domains shown) VH: QVQLVESGGGLVQPGRSLRLSCAASGFTFSNAWMHWVRQAPGKGLEWVAQIKDKGNAYAAYYAPSVKGRFTISRDDSKNSIYLQMNSLKTEDTAVYYCHYVHYAHASTVLPAFGVDAWGQGTTVTVSS VL: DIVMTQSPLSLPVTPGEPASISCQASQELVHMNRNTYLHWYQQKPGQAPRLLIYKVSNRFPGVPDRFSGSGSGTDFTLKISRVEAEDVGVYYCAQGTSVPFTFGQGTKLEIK")
0.7

# next binder below
Q. Please list fold change of affinity recorded for the binder dBBDu183H Y97R/dBBDu072L (antibody, name in Kabat numbering, V domains shown) VH: QVQLVESGGGLVQPGRSLRLSCAASGFTFSNAWMHWVRQAPGKGLEWVAQIKDKGNAYAAYYAPSVKGRFTISRDDSKNSIYLQMNSLKTEDTAVYYCHYVHRASASTVLPAFGVDAWGQGTTVTVSS VL: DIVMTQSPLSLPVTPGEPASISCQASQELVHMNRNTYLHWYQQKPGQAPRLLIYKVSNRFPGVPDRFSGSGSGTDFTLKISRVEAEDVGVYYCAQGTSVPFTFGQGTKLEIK
A. 0
